molecular target: recombinant human COX-2 (Homo sapiens); test: biochemical; settings: COX-2 selectivity from COX-1 and COX-2 IC50
Sequence (P35354 18-604): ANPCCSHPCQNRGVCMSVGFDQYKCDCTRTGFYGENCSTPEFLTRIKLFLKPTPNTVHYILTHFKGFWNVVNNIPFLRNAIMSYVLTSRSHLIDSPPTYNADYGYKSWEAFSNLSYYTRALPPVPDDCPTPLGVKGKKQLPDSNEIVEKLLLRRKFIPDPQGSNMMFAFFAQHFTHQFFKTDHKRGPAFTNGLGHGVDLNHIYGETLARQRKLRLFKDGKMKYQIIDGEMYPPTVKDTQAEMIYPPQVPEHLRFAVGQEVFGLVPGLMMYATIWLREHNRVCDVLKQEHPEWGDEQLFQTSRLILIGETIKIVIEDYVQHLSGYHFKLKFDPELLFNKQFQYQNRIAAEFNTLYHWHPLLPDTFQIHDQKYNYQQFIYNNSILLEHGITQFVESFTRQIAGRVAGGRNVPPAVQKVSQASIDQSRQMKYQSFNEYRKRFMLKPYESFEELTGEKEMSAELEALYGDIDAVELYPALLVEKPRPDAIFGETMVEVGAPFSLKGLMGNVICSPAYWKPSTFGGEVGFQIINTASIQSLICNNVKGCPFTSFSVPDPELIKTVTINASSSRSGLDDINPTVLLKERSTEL
The molecules listed here are annotated with their Selectivity index (SI).

>  <molecule>
O=Cc1ccc(O)cc1 [4-Hydroxybenzaldehyde (1), 4-hydroxybenzaldehyde]

>  <measure>
Selectivity index (SI)

>  <measValue>
2.9

$$$$
>  <molecule>
O=C(O)CCCCCCCC(=O)O [Azelaic acid (4), azelaic acid]

>  <measure>
Selectivity index (SI)

>  <measValue>
5.24

$$$$
>  <molecule>
OCCc1ccc(O)cc1 [Tyrosol (3), tyrosol]

>  <measure>
Selectivity index (SI)

>  <measValue>
4.49

$$$$

Query: # input molecule: CCCCc1ccc(C(=O)O)nc1 [Fusaric acid (6), fusaric acid] ; wanted: its Selectivity index (SI)
Response: 0.8

----------
molecular target: tyrosinase enzyme; assay: Tyrosinase inhibitory assay (L-DOPA substrate, BioVision kit); assay type: biochemical; conditions: mean ± SEM, triplicate
measure: pIC50
On this scale, pIC50 is minus log10 of a concentration expressed in M (mol/L).

>  <compound>
O=C(O)c1ccc(O)cc1 [4-Hydroxybenzoic acid (2), 4-hydroxybenzoic acid]

>  <pIC50>
4.59

$$$$
>  <compound>
O=C(O)CC(O)C(=O)O (centres unmarked) [Malic acid (5), malic acid]

>  <pIC50>
4.06

$$$$
>  <compound>
CCCCc1ccc(C(=O)O)nc1 [Fusaric acid (6), fusaric acid]

>  <pIC50>
4.87

$$$$

Query: # input compound: OCCc1ccc(O)cc1 [Tyrosol (3), tyrosol] ; wanted: its pIC50
Response: 4.95

Query: # input compound: O=C(O)CCCCCCCC(=O)O [Azelaic acid (4), azelaic acid] ; wanted: its pIC50
Response: 5.06

----------
target: ovine COX-1 (Ovis aries, UniProt P05979); experiment: biochemical
Sequence (P05979 25-600): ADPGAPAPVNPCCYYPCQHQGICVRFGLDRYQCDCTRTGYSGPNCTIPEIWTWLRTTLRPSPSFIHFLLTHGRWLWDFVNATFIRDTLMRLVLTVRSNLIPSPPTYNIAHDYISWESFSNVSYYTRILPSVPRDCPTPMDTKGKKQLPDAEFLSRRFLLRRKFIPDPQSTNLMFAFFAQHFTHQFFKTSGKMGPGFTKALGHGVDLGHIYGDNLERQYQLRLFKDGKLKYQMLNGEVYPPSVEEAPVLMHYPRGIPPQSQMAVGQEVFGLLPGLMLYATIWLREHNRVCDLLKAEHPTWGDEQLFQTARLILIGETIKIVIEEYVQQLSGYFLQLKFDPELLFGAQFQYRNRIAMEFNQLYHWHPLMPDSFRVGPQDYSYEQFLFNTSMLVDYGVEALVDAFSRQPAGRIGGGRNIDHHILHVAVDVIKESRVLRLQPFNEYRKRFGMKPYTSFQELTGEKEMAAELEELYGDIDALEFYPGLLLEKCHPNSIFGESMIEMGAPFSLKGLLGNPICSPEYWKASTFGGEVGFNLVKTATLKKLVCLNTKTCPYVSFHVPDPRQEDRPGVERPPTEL
measure: pIC50
On this scale, pIC50 is minus log10 of a concentration expressed in M (mol/L).

Query: # input compound: O=C(O)CC(O)C(=O)O (stereo not drawn) ; wanted: its pIC50
Response: 4.29

Query: # input compound: CCCCc1ccc(C(=O)O)nc1 ; wanted: its pIC50
Response: 5.41

Query: # input compound: OCCc1ccc(O)cc1 ; wanted: its pIC50
Response: 4.62

----------
biological target: ovine COX-1 (Ovis aries, UniProt P05979); experiment: biochemical; settings: mean ± SEM, triplicate; read-out: IC50 COX-1
measure: IC50 (µM)
Give your result in µM as a bare value.

>  <compound>
O=C(O)CCCCCCCC(=O)O

>  <unitOfMeasurement>
µM

>  <measValue>
11.6

$$$$

Query: What reported IC50 corresponds to O=Cc1ccc(O)cc1 [4-Hydroxybenzaldehyde (1), 4-hydroxybenzaldehyde] on ovine COX-1 (Ovis aries, UniProt P05979)?
Response: 25.7

Query: What reported IC50 corresponds to O=C(O)c1ccc(O)cc1 [4-Hydroxybenzoic acid (2), 4-hydroxybenzoic acid] on ovine COX-1 (Ovis aries, UniProt P05979)?
Response: 44.5

----------
Molecular target: recombinant human COX-2 (Homo sapiens)
Experiment: biochemical
Details: mean ± SEM, triplicate; read-out: IC50 COX-2
Procedure: The full method is provided in the Supplementary materials. […] The investigational methodology was carried out following the provider’s recommendations. […] During the reduction, the PGF2α formed in PGH2 via stannous chloride was evaluated via ELISA (enzyme-linked immunoassay). […] Later, the COX reactions were ended after 2 min by adding saturated stannous chloride (30 µL), then inoculate for 5 min at room temperature. Afterwards, the PGF2α level was measured using ELISA. […]
The compounds listed here are annotated with their IC50.
Give your result in µM as a bare value.

Examples with their reported IC50 follow.
>  <compound>
O=Cc1ccc(O)cc1 [4-Hydroxybenzaldehyde (1), 4-hydroxybenzaldehyde]

>  <targetOrSystem>
recombinant human COX-2 (Homo sapiens)

>  <measValue>
8.87

$$$$
>  <compound>
CCCCc1ccc(C(=O)O)nc1

>  <targetOrSystem>
recombinant human COX-2 (Homo sapiens)

>  <measValue>
4.81

$$$$
>  <compound>
O=C(O)CC(O)C(=O)O (centres unmarked)

>  <targetOrSystem>
recombinant human COX-2 (Homo sapiens)

>  <measValue>
10.4

$$$$
>  <compound>
O=C(O)c1ccc(O)cc1 [4-Hydroxybenzoic acid (2), 4-hydroxybenzoic acid]

>  <targetOrSystem>
recombinant human COX-2 (Homo sapiens)

>  <measValue>
28.4

$$$$

Here is another compound to look at.
Query: # input compound: O=C(O)CCCCCCCC(=O)O ; wanted: its IC50
Response: 2.21
